# Test system: OVCAR-3
# Measurement protocol: NCI tumour cell line growth inhibition, 48 h
Calls of active or inactive are those of the source. Rule as the data show it: active = GI50 up to about 1.1 µM and inactive = higher.
Reported values of GI50 for individual entries

Tested on OVCAR-3: COc1cc2c(c(C)c1O)[C@H]1COc3ccccc3[C@H]1O2 . Observed GI50: 21.9 µM (inactive)

Record COc1c(-c2cc(C)c(Cl)c(=O)[nH]2)c(O)c(OC)c2occc12 ; system OVCAR-3; GI50 = > 100 µM (inactive)

GI50 value, target or system OVCAR-3, for Cc1ccc(S(=O)(=O)N/N=C2\CC3C4C=CC3C2C4)cc1 (stereo not given) : > 100 µM (inactive)

Summary: O=C(O)c1ccccc1CC1Cc2ccccc2C1=O (stereo not given) , OVCAR-3, GI50 = > 100 µM (inactive)

Response field GI50 (OVCAR-3) for item C[C@]12CCC(=O)C=C1CC[C@@H]1[C@@H]2[C@@H](O)C[C@@]2(C)[C@H]1CC[C@]2(O)C(=O)CO [HYDROCORTISONE] : > 100 µM (inactive)

* * *

# Test system: NCI-H226
# Measurement protocol: NCI tumour cell line growth inhibition, 48 h
Calls of active or inactive are those of the source. No stated cut-off is given here; in the data, active = GI50 up to about 1.1 µM and inactive = higher.
# maps each entry to its GI50

// known answers, use as guide
1) CNC(=S)NN=C1NCCCN1 ... > 100 µM (inactive)
2) Cc1cc(Cl)cc2c1NC(=O)C2(O)CC(=O)c1ccc(F)cc1 (stereo unspecified) ... 39.8 µM (inactive)
3) CC(C)=CCC[C@H](C)[C@H]1CC[C@@H](C)c2cc(O)c(C)cc21 ... 18 µM (inactive)
4) C=CC(C)(O)CCC1C(=C)C(O)CC2C(C)(C)CCCC12C (stereo unspecified) ... 15.6 µM (inactive)
5) COc1ccc2c(c1)N=C1CSC(c3ccccc3Cl)N1C2 (stereo unspecified) ... 24 µM (inactive)
6) O=C1CCC2(c3ccccc3)Nc3ccncc3N12 (stereo unspecified) ... > 10 µM (inactive)
7) COc1ccc2c(c1)CC[C@@H]1C2CC[C@]2(C)C(=O)NC(=O)CC12 (stereo partly specified) ... 67.5 µM (inactive)
8) C/C(=N/NC(=O)c1ccncc1)c1ccc(NC(=O)C(=O)Nn2c(S)nc3ccccc3c2=O)cc1 ... > 100 µM (inactive)
9) O=c1[nH]c(Nc2cccc(C(F)(F)F)c2)nc2[nH]cnc12 ... > 100 µM (inactive)
10) COC(=O)C12C34C=CC5(CCC6(C=CC1(CC3)O6)C52C(=O)OC)O4 (stereo unspecified) ... > 100 µM (inactive)

Please find the next compound below.
For O=C(/C=C/c1ccc(OCc2ccccc2)cc1)NCc1ccc(C(=O)NCCc2ccccc2)cc1 the compound record lists GI50 as > 100 µM (inactive)

* * *

# System: UACC-257
# Measurement protocol: NCI tumour cell line growth inhibition, 48 h
Active and inactive are the calls of the source. Cut-off read from the data, not from the text of the source: active = GI50 up to about 1.1 µM and inactive = higher.
Property: GI50

The measured GI50 associated with Cc1ccc(/N=N/C(=N/NC(=O)c2ccccc2)c2ccc(N(CCC#N)CCC#N)cc2C)cc1 reads 55 µM (inactive)

In plain terms, COc1ccc(NC(=S)N/N=C(\C)c2nc3cccnc3[nH]2)cc1 has a documented GI50 of 3.52 µM (inactive)

GI50 for COc1ccc(C2C(C#N)=C(S)N(C3OC(COC(C)=O)C(OC(C)=O)C(OC(C)=O)C3OC(C)=O)C(C)=C2C(C)=O)cc1 (stereo not given) is > 100 µM (inactive)

So for CN(C)CCNC1=CC(=O)c2c(O)ccc(O)c2C1=O , the logged GI50 turned out to be 2.36 µM (inactive)

For this compound ( NC(CCC(=O)c1ccccn1)C(=O)O (stereo not given) ), measured GI50 is > 100 µM (inactive)
